Where do these numbers come from? They come from paper PMC11162469.

biological target: rat RXFP2 (Rattus norvegicus, UniProt F7EMH8); experiment: INSL3-stimulated cAMP assay in HEK293 stably expressing rat RXFP2; details: read-out: HEK293-rat RXFP2 cAMP IC50; INSL3 EC80-stimulated cAMP, stable expression; N = 2;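 further: cAMP measured with an HitHunter kit in 384-well plates, 11-point dose–response curves up to 1 µM antibody, four-parameter variable-slope fit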
Sequence (F7EMH8 20-737): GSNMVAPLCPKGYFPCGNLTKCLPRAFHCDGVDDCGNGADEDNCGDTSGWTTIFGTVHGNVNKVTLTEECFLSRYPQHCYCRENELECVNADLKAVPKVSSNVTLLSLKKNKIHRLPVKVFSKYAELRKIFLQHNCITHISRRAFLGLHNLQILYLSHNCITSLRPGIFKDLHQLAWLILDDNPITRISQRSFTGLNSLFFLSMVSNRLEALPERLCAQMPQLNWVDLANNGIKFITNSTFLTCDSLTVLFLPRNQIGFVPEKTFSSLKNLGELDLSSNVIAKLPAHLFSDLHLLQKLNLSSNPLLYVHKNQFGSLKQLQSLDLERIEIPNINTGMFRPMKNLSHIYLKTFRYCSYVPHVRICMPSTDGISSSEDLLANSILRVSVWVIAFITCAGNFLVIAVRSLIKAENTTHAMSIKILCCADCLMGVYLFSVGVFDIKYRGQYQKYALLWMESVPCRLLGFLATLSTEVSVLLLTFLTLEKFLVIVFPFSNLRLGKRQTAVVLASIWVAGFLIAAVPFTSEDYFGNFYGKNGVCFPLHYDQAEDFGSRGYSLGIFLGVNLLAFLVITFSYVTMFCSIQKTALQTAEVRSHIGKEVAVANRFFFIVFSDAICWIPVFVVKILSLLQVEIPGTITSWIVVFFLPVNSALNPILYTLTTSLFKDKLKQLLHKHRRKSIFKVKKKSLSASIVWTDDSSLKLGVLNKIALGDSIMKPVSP
Overview of reported IC50 across a group of molecules:
State the answer as a number, implicitly in nM.

>  <MOLECULE>
4G6: Human/rat cross-reactive RXFP2 monoclonal antibody, rat IgG2b backbone; binds the LDLa domain (antibody, V domains shown) VH: EVQLQQSGPELVKPGASVKLSCKASGYTFTSYVMHWVKQKPEQGLEWIGYKNPSNDGIKYNEKFKGKATLTSDKSSNIAYMELFSLTSEDSAVYYCARSDFGSVWAMDYWGQGTSVTVSS VL: SIVMTQTPKFLLVSAGDRVTITCKASQSVNDDIVWYQQKPGQSPKLLIYYASNRYTGVPDRFTGSGYGTDFTFTISTVQAGDLAVYFCQQDYSSPFTFGSGTKLEIK

>  <OBSERVABLE>
IC50

>  <MEASURED>
14.1

$$$$

Kindly consider the entry below.
Give the measured IC50 for 2D4: RXFP2 monoclonal antibody from hybridoma, recombinantly expressed in a rat IgG2b backbone (antibody, V domains shown) VH: QVQLKESGPGLVAPSQSLSITCTVSGFSLTTYGISWVRQPPGKGLEWLGVIWTGGGTNYNSALKSRLSISKDNSKSQVFLKMNSLQTDDTARYYCARTEGYYVMDYWGQGTSVTVSS VL: DIQMTQSPASLSVSVGETVTITCRASENIYSNLVWYQQKQGKSPQLLVYAATNLADGVPSRFSGSGSGTQYSLKINNLQSEDFGTYYCQHFWGPPWTFGGGTKLEIK
21
